Parameter: koff. Scope: all listed entries.
- STUDY SYSTEM: T1, His-tagged cynomolgus TIGIT (cynomolgus, UniProt A0A7N9I9V4 89-209)
- T1 construct: SPR analyte; also called cynomolgus TIGIT protein; not shown: His tag
- T1 sequence (A0A7N9I9V4 entry or part of it): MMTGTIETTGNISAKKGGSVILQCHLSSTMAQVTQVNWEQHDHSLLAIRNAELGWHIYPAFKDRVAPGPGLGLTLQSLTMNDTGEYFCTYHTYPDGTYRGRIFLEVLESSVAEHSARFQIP
- EXPERIMENTAL PROTOCOL: SPR (Biacore T200), antibody captured, His-tagged TIGIT analyte
# value in s⁻¹; strip the unit string

Some entries whose results are on file:
>>> measured_value("huTIGIT-19-4 (antibody, human IgG1, kappa, V domains shown, Humanized IgG; also called 19VH4.M10 + 19VL1.M7) VH: QVQLVQSGAEVKKPGASVKVSCKASGYTFTRYSMYWVRQAPGQGLEWIAFIDAYSGGSTYAQKFQGKATLTVDTSISTAYMELSRLRSDDTAVYYCARGGDYGWYLGVWGQGTLVTVSS VL: DIQMTQSPSSLSASVGDRVTITCRASQSIYSYLSWYQQKPGKAPKLLIYNAKSLPSGVPSRFSGSGSGTDFTLTISSLQPEDFATYYCQHHYGNPLTFGQGTKVEIKR")
"7.3e-05"
>>> measured_value("huTIGIT-6-1 (antibody, human IgG1, kappa, V domains shown, Humanized IgG; also called 6VH6.M4 + 6VL1.M1) VH: QVQLVQSGAEVKKPGASVKVSCKASGYTITENTMHWVRQAPGQRLEWIGGINPNQGGTSYSQKFQGRATLTVDTSASTAYMELSSLRSEDTAVYYCTRSSYYRYDLDYWGQGTTVTVSS VL: DIQMTQSPSSLSASVGDRVTITCQASQDIKTALAWYQQKPGKAPKLLIYSASYRYTGVPSRFSGSGSGTDFTFTISSLQPEDIATYYCHQHYTTPWTFGGGTKLEIKR")
0.0044

The reported koff of the binder huTIGIT-19-2 (antibody, human IgG1, kappa, V domains shown, Humanized IgG; also called 19VH4.M9 + 19VL1.M7) VH: QVQLVQSGAEVKKPGASVKVSCKASGYTFTRYSMYWVRQAPGQGLEWIAFIDAYSGGSTYNQRFRGKATLTVDTSISTAYMELSRLRSDDTAVYYCARGGDYGWYLGVWGQGTLVTVSS VL: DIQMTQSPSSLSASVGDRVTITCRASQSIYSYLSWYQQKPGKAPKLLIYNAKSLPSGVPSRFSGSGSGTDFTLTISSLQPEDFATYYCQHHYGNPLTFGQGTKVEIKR was 5.2e-05
